- Test system: HepG2
- PROCEDURE DETAILS: GSK_TCMDC: Percent inhibition of human HepG2 cell line. Test compounds present at 10uM.
- Format: functional
# cutoff 2% applies to Inhibition; >= gives T, < gives F

| MOLECULE | ASSAY SYSTEM | ASSIGNED CLASS |
| --- | --- | --- |
| COc1ccccc1C1CC(c2ccccc2)=NN1C(=O)c1ccco1 (stereo unspecified) | HepG2 | T |

**Q:** Record Cc1ccccc1Nc1nc(NCc2ccccc2)nc2ccccc12 ; criterion: Inhibition no lower than 2%. Met?
**A:** T

**Q:** Check this molecule for Inhibition at or above 2%: Clc1ccc2nc(-c3cccnc3)[nH]c2c1
**A:** F
